Ref: paper PMC5748433

# Measurement Protocol: Pharmacokinetic study in rats, plasma (LC/MS/MS, non-compartmental)
# Assay type: in vivo, rat
# Assay Context: rat, plasma, ip, 2.5 mg/kg, rat plasma, EMD386088 2.5 mg/kg i.p. jointly with imipramine (IMI) 15 mg/kg i.p.; read-out: t max (converted)
Readout Label: Tmax (h)
Numbers only, in h.

Just so you know, measured Tmax for Cc1[nH]c2ccc(Cl)cc2c1C1=CCNCC1.Cl came out at 1

###

# Measurement Protocol: Pharmacokinetic study in rats, plasma (LC/MS/MS, non-compartmental)
# Format: in vivo, rat
# Assay Context: rat, plasma, ip, 5 mg/kg, rat plasma, EMD386088 5 mg/kg i.p. alone; read-out: V d/F
# Experimental: Blood samples were collected at 0 min (predose), 5 min, 15 min, 30 min, 60 min, 120 min, and 240 min after injections. […] Pharmacokinetic parameters were calculated by a non-compartmental approach from the average concentration values, using Phoenix WinNonlin software (Certara, Princeton, NJ 08540 USA). First order elimination rate constant (λz) was calculated by linear regression of time versus log concentration. […]
Readout Label: Vd/F (L/kg)
One number for each entry, in L/kg.

Form: molecule = Cc1[nH]c2ccc(Cl)cc2c1C1=CCNCC1.Cl [EMD386088] ; Vd/F = 97.1
